Values from ChEMBL document CHEMBL1148292

Experimental target: UniProtKB P30542
Sequence (P30542 whole entry): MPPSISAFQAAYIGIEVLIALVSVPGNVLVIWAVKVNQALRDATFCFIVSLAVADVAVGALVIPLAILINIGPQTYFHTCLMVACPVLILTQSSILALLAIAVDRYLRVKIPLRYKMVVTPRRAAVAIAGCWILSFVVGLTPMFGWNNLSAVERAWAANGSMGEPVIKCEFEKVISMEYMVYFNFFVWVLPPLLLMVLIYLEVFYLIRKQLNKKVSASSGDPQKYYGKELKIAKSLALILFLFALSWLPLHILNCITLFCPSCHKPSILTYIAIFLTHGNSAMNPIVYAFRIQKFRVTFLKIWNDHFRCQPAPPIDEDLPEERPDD
Assay info: Displacement of specific [3H]DPCPX binding at human adenosine A1 receptor expressed in CHO cells
Type: cell-based
Stated conditions: cho
pKi: −log10 of the molar value.

{"columns": ["Given smiles", "pKi"],
 "data": [
  ["CCCn1c(=O)c2[nH]c(-c3cc(OCC(=O)N4CCN(C)CC4)nn3C)nc2n(CCC)c1=O", "< 6.00"]
]}

---

Experimental target: Adenosine receptor A2b (Homo sapiens, UniProt P29275)
Sequence (P29275 whole entry): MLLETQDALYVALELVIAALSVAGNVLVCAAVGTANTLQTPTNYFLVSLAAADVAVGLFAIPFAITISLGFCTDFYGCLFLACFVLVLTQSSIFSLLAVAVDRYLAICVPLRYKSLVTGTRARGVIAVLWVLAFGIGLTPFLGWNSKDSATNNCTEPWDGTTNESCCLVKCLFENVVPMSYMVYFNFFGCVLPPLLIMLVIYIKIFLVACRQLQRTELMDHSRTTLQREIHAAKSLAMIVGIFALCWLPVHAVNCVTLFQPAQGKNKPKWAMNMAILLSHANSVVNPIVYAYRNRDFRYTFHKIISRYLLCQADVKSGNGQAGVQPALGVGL
Assay info: Binding affinity of compound for displacement of [3H]DPCPX binding in HEK293 membranes expressing human A2B adenosine receptors
pKi: −log10 of the molar value.
Known pKi of a selection of molecules

{"columns": ["Given smiles", "Experimental target", "pKi"],
 "data": [
  ["CCCn1c(=O)c2[nH]c(-c3ccc(OCC(=O)Nc4ccc(I)cc4)nc3)nc2n(CCC)c1=O", "Adenosine receptor A2b (Homo sapiens, UniProt P29275)", 6.97],
  ["CCCn1c(=O)c2[nH]c(-c3cc(OCC(=O)Nc4ccc(C(=O)OCC)cc4)nn3C)nc2n(CCC)c1=O", "Adenosine receptor A2b (Homo sapiens, UniProt P29275)", 7.49],
  ["CCCn1c(=O)c2[nH]c(-c3cc(NC(=O)Cc4ccc5c(c4)OCO5)nn3C)nc2n(CCC)c1=O", "Adenosine receptor A2b (Homo sapiens, UniProt P29275)", 7.74],
  ["CCCn1c(=O)c2[nH]c(-c3cc(NC(=O)Cc4ccc(Cl)cc4)nn3C)nc2n(CCC)c1=O", "Adenosine receptor A2b (Homo sapiens, UniProt P29275)", 7.55],
  ["CCCn1c(=O)c2[nH]c(-c3cc(NC(=O)Cc4cccc(F)c4)nn3C)nc2n(CCC)c1=O", "Adenosine receptor A2b (Homo sapiens, UniProt P29275)", 7.30],
  ["C=CCn1c(=O)c2[nH]c(-c3cc(OCC(=O)N4CCN(c5ccccc5)CC4)nn3C)nc2n(CC=C)c1=O", "Adenosine receptor A2b (Homo sapiens, UniProt P29275)", 7.62],
  ["CCCn1c(=O)c2[nH]c(-c3cc(OCC(=O)Nc4ccc(C)cc4)nn3C)nc2n(CCC)c1=O", "Adenosine receptor A2b (Homo sapiens, UniProt P29275)", 7.72],
  ["CCCn1c(=O)c2[nH]c(-c3cc(NC(=O)Cc4ccccc4)nn3C)nc2n(CCC)c1=O", "Adenosine receptor A2b (Homo sapiens, UniProt P29275)", 7.46],
  ["CCCn1c(=O)c2[nH]c(-c3cc(OCC(=O)Nc4ccc(OC)c(OC)c4)nn3C)nc2n(CCC)c1=O", "Adenosine receptor A2b (Homo sapiens, UniProt P29275)", 7.92],
  ["CCCn1c(=O)c2[nH]c(-c3cc(OCC(=O)Nc4ccc(C)c(C)c4)nn3C)nc2n(CCC)c1=O", "Adenosine receptor A2b (Homo sapiens, UniProt P29275)", 8.00],
  ["CCCn1c(=O)c2[nH]c(-c3cc(NC(=O)Cc4ccccc4)n(C)n3)nc2n(CCC)c1=O", "Adenosine receptor A2b (Homo sapiens, UniProt P29275)", 7.47],
  ["CCCn1c(=O)c2[nH]c(-c3cc(OCC(=O)N4CCN(C)CC4)nn3C)nc2n(CCC)c1=O", "Adenosine receptor A2b (Homo sapiens, UniProt P29275)", 7.12],
  ["CCCn1c(=O)c2[nH]c(-c3cc(NC(=O)Cc4ccc(OCc5ccccc5)cc4)nn3C)nc2n(CCC)c1=O", "Adenosine receptor A2b (Homo sapiens, UniProt P29275)", 7.25],
  ["CCCn1c(=O)c2[nH]c(-c3cc(NC(=O)Cc4ccc(OCc5ccccc5C(F)(F)F)cc4)nn3C)nc2n(CCC)c1=O", "Adenosine receptor A2b (Homo sapiens, UniProt P29275)", 7.89],
  ["CCCn1c(=O)c2nc(-c3cc(OCC(=O)Nc4ccc5c(c4)OCO5)no3)[nH]c2n(CCC)c1=O", "Adenosine receptor A2b (Homo sapiens, UniProt P29275)", 7.33],
  ["CCCn1c(=O)c2[nH]c(-c3cc(OCC(=O)Nc4ccc(Cl)c(Cl)c4)nn3C)nc2n(CCC)c1=O", "Adenosine receptor A2b (Homo sapiens, UniProt P29275)", 7.80],
  ["CCCn1c(=O)c2[nH]c(-c3cc(NC(=O)Cc4ccc(OC)c(OC)c4)nn3C)nc2n(CCC)c1=O", "Adenosine receptor A2b (Homo sapiens, UniProt P29275)", 7.42],
  ["CCCn1c(=O)c2[nH]c(-c3cc(OCC(=O)Nc4ccc(C(=O)O)cc4)nn3C)nc2n(CCC)c1=O", "Adenosine receptor A2b (Homo sapiens, UniProt P29275)", 7.44],
  ["CCCn1c(=O)c2[nH]c(-c3cc(OCC(=O)Nc4ccc(Br)cc4)nn3C)nc2n(CCC)c1=O", "Adenosine receptor A2b (Homo sapiens, UniProt P29275)", 7.70]
]}
